The binders listed here are annotated with their Kd.
# TARGET_OF_ASSAY: T1, CD25 (R&D systems cat. #223-2A/CF) (UniProt P01589 22-213, limits assumed)
# T1 construct: Bought soluble protein
# T1 sequence (looked up): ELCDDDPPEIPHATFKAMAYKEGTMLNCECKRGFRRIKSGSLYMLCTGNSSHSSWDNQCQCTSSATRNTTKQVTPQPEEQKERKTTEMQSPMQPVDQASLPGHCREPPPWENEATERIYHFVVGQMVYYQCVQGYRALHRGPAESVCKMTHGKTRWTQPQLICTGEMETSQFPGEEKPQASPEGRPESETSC
# ASSAY_NOTES: Biacore (SPR); antibody captured on Protein A, CD25 injected
Field: numeric (nM). Do not append units.

Record excerpt, results attached:
### Prompt What measured Kd goes with anti-CD25 H1L1.7 (antibody, V domains shown, Single variant in the anti-CD25 H1L1 background; also called VL Q79E single variant) VH: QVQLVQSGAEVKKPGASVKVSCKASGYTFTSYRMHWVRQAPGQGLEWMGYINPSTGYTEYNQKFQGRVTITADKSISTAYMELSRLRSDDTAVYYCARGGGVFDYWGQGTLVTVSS VL: QIVLTQSPATLSLSPGERATLSCRASSSISYMHWFQQKPGQSPQLLIYTTSNLASGVPARFSGSGSGTDYTLTISSLEPEDFAVYYCHQRSTYPLTFGSGTKLEIK ?
### Response 0.28

### Prompt What measured Kd goes with anti-CD25 H1L1.16 (antibody, V domains shown, Single variant in the anti-CD25 H1L1 background; also called VL F36Y single variant) VH: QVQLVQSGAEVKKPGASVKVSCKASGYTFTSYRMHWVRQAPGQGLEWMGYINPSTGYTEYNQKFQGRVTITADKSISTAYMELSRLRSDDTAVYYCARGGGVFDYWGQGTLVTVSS VL: QIVLTQSPATLSLSPGERATLSCRASSSISYMHWYQQKPGQSPQLLIYTTSNLASGVPARFSGSGSGTDYTLTISSLQPEDFAVYYCHQRSTYPLTFGSGTKLEIK ?
### Response 0.26

For the next question, use this binder.
### Prompt What measured Kd goes with anti-CD25 H1L1.13 (antibody, V domains shown, Single variant in the anti-CD25 H1L1 background; also called VL V58I single variant) VH: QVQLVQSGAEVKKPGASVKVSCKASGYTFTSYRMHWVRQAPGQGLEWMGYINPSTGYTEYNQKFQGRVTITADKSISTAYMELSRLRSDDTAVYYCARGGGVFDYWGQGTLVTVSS VL: QIVLTQSPATLSLSPGERATLSCRASSSISYMHWFQQKPGQSPQLLIYTTSNLASGIPARFSGSGSGTDYTLTISSLQPEDFAVYYCHQRSTYPLTFGSGTKLEIK ?
### Response 0.35
